Below, each entry is listed with its recorded Ki.
Biological target: human σ2/TMEM97 receptor (Homo sapiens, UniProt Q5BJF2)
Sequence (Q5BJF2 whole entry): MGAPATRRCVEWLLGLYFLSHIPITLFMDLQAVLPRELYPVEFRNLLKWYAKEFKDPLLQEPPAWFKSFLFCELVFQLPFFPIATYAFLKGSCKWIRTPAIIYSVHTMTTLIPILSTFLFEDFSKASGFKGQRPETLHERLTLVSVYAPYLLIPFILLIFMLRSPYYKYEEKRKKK
Test: Binding assay to human σ2/TMEM97 receptor ([3H]-DTG, transfected HEK-293 membranes)
Details: class scale, read-out: Binding σ-2 Ki
Experimental: Transfected HEK-293 membranes (15 μg) were incubated with 10 nM [^3H]-1,3-Di-o-tolylguanidine (DTG) in assay buffer containing Tris-HCl 50 mM at pH 8.0. NSB (non-specific binding) was measured by adding 10 μM haloperidol. […] Filters were dried and counted at approximately 40% efficiency in a MicroBeta scintillation counter (Perkin-Elmer) using EcoScint liquid scintillation cocktail.

As a guide, the following entries are already answered.
| molecule | observed |
| --- | --- |
| CCn1nc(-c2cc(C)on2)c(C(=O)NC2CC3(CCN(CCC(C)(C)C)CC3)C2)c1Cl | < 100 nM |
| CCn1nc(-c2cc(C)on2)c(C(=O)NC2CCN(CCC(C)(C)C)CC2)c1Cl | < 100 nM |
| CCn1nc(-c2cc(C)on2)c(C(=O)N2CCCC3(CCN(CCC(C)(C)C)CC3)C2)c1Cl | < 100 nM |
| Cc1cc(-c2nn(C)c(Cl)c2CN2CCC(CNCC(C)C)C2)no1 (stereo not shown) | > 1000 nM |
| Cc1cc(-c2nn(C)c(Cl)c2C(=O)N2CCCCC(N(C)CCC(C)C)C2)no1 (stereo not shown) | 500 to 1000 nM |
| Cn1cc(-c2nn(C)c(Cl)c2C(=O)N2CCC3(CCN(CCC(C)(C)C)CC3)CC2)cn1 | 100 to 500 nM |

Param item = CCn1nc(-c2cnn(C(C)C)c2)c(C(=O)NC2CC3(CCN(CCC(C)(C)C)CC3)C2)c1Cl ; retrieve measured Ki.
< 100 nM
